Attribution: patent US9540343B2

- assay.info: in vitro
- setup.conditions: human, uninfected MT-4 cells, CC50 (nM), same protocol as Test A, CellTiter-Glo
CC50 at 5 days strictly less than 20000 nM = Condition met. Otherwise Condition not met.

[ask] Item NC(=O)c1cc(-c2cccnc2[C@H](Cc2cc(F)cc(F)c2)NC(=O)Cn2nc(C(F)(F)F)c3c2CCC(O)C3)ccc1F (some centres unmarked) [Example 448] : CC50 at 5 days beneath 20000 nM, strictly?
[reply] Condition not met

[ask] Threshold test, CC50 at 5 days < 20000 nM: CCc1c(C#CC(C)(C)C)c(C(F)(F)F)nn1CC(=O)N[C@@H](Cc1cc(F)cc(F)c1)c1ncccc1-c1ccc(F)c(C(N)=O)c1 [Example 280]
[reply] Condition met

[ask] Decide: CC50 at 5 days of CC(C)(C)c1cc(C(F)(F)F)nn1CC(=O)N[C@@H](Cc1cc(F)cc(F)c1)c1ncccc1-c1ccc(F)c(C(N)=O)c1 [Example 244B] strictly below 20000 nM?
[reply] Condition met

[ask] # check: CC50 at 5 days < 20000 nM for O=C(Cc1c[nH]c2ccc(F)cc12)N[C@@H](Cc1cc(F)cc(F)c1)c1ncccc1-c1ccc(OC(F)(F)F)cc1 [Example 431]
[reply] Condition met

[ask] Given COc1cc(C)c(-c2cccnc2C(Cc2cc(F)cc(F)c2)NC(=O)Cn2nc(C(F)(F)F)c3c2CCCC3)c(C)c1 (centres unmarked) [Example 8] , is recorded CC50 at 5 days strictly lower than 20000 nM?
[reply] Condition met

[ask] Hi there! Is CC50 at 5 days for Cc1ccccc1-c1cccnc1[C@H](Cc1cc(F)cc(F)c1)NC(=O)Cc1c[nH]c2ccc(O)cc12 [Example 26] below 20000 nM, do you know?
[reply] Condition not met

[ask] Hello, is CC50 at 5 days of the following compound strictly smaller than 20000 nM? Cc1cc(C)c2c(c1)NC(=O)C2CC(=O)N[C@@H](Cc1cccc(F)c1)c1ncccc1-c1ccc(F)c(C(N)=O)c1 (some centres unmarked) [Example 59E]
[reply] Condition not met

[ask] Bench note: check whether CC(C)(C)OC(=O)NCc1ccc2[nH]cc(CC(=O)N[C@@H](Cc3cc(F)cc(F)c3)c3ncccc3-c3cccc(C(N)=O)c3)c2c1 [Example 529] shows CC50 at 5 days below 20000 nM
[reply] Condition met

[ask] Strictly below 20000 nM in CC50 at 5 days? NC(=O)c1cc(-c2cccnc2[C@H](Cc2cc(F)cc(F)c2)NC(=O)Cn2nc(C(F)F)c3c2C2CC(C2)C3=O)ccc1F [Example 397]
[reply] Condition not met

[ask] Please check: CC50 at 5 days for O=C(Cc1c[nH]c2ccc(F)cc12)N[C@@H](Cc1cc(F)cc(F)c1)c1ncccc1-c1ccc(Cl)c(Cl)c1 [Example 396] , strictly under 20000 nM or not?
[reply] Condition met

[ask] Is CC50 at 5 days of NC(=O)c1cc(-c2cccnc2[C@H](Cc2cc(F)cc(F)c2)NC(=O)[C@@H]2CC(=O)CN2)ccc1F [Example 167] strictly below 20000 nM?
[reply] Condition not met

[ask] Report whether reported CC50 at 5 days is lower than 20000 nM (strictly) for Cc1c(C2CC2)c(C(F)(F)F)nn1CC(=O)N[C@@H](Cc1cc(F)cc(F)c1)c1ncccc1-c1ccc(F)c(C(N)=O)c1 [Example 291]
[reply] Condition met

[ask] Is it true that CC50 at 5 days reported for NC(=O)c1cc(-c2cccnc2[C@H](Cc2cc(F)cc(F)c2)NC(=O)Cn2nc(C(F)(F)F)c3c2CC(=O)CC3)ccc1F [Example 322] is less than 20000 nM?
[reply] Condition not met

[ask] For NC(=O)c1cccc(-c2cccnc2[C@H](Cc2cc(F)cc(F)c2)NC(=O)Cn2ccc3cc(F)c(F)cc32)c1 [Example 594B] , is the recorded CC50 at 5 days below the cut-off of 20000 nM?
[reply] Condition met

[ask] Report whether reported CC50 at 5 days is lower than 20000 nM (strictly) for NC(=O)c1cccc(-c2cccnc2[C@H](Cc2cc(F)cc(F)c2)NC(=O)Cn2cnc3ccccc32)c1 [Example 418]
[reply] Condition not met

[ask] Please state whether CC50 at 5 days is below 20000 nM for NC(=O)c1cc(-c2cccnc2[C@H](Cc2cc(F)cc(F)c2)NC(=O)Cn2ccc3ccc4ccccc4c32)ccc1F [Example 56B]
[reply] Condition met

[ask] A record lists CC(C)c1cc(C(C)C)n(CC(=O)N[C@@H](Cc2cc(F)cc(F)c2)c2ncccc2-c2ccc(F)c(C(N)=O)c2)n1 [Example 538] . Is its CC50 at 5 days below 20000 nM?
[reply] Condition not met

[ask] Hello, I'm reviewing records and need to know if CC50 at 5 days of NC(=O)c1cc(-c2cccnc2[C@H](Cc2cc(F)cc(F)c2)NC(=O)Cn2ncc3c(Cl)cc(Cl)cc32)ccc1F [Example 550] is below 20000 nM. Could you check?
[reply] Condition met

[ask] Bench note: check whether NC(=O)c1cc(-c2cccnc2[C@H](Cc2cc(F)cc(F)c2)NC(=O)Cn2nc(C(F)F)c3c2C(F)C2CC32)ccc1F (some centres unmarked) [Example 260] shows CC50 at 5 days below 20000 nM
[reply] Condition not met

[ask] is_below(CC50 at 5 days, 20000 nM) for NC(=O)c1cc(-c2cccnc2[C@H](Cc2cccc(F)c2)NC(=O)CN2CC(=O)Nc3ccccc32)ccc1F [Example 264] ?
[reply] Condition not met

[ask] Could you please tell me whether CC50 at 5 days recorded for O=C(Cn1nc(C(F)F)c2c1C(F)(F)C1CC21)N[C@@H](Cc1cc(F)cc(F)c1)c1ncccc1-c1ccc2cccnc2c1 (some centres unmarked) [Example 97] is less than 20000 nM?
[reply] Condition not met

[ask] Strictly below 20000 nM in CC50 at 5 days? NC(=O)c1cccc(-c2cccnc2[C@H](Cc2cc(F)cc(F)c2)NC(=O)Cn2cnc3c2CCCC3)c1 [Example 382]
[reply] Condition not met

[ask] Please let me know if CC(C)c1cc(C(F)(F)F)n(CC(=O)N[C@@H](Cc2cc(F)cc(F)c2)c2ncccc2-c2ccc(F)c(C(N)=O)c2)n1 [Example 236D] shows CC50 at 5 days below 20000 nM.
[reply] Condition not met

[ask] Below 20000 nM on CC50 at 5 days? Entry O=C(Cc1c[nH]c2ccc(F)cc12)NC(Cc1cc(F)cc(F)c1)c1nc[nH]c(=O)c1-c1ccc(Cl)cc1 (centres unmarked) [Example 328]
[reply] Condition met

[ask] Given Cc1ccccc1-c1cccnc1[C@H](Cc1cc(F)cc(F)c1)NC(=O)Cn1nc(C(F)(F)F)c2c1CCCC2 [Example 27] , is recorded CC50 at 5 days strictly lower than 20000 nM?
[reply] Condition met

[ask] Hi there! Is CC50 at 5 days for Cc1cc2cnn(CC(=O)N[C@@H](Cc3cc(F)cc(F)c3)c3ncccc3-c3ccc(F)c(C(N)=O)c3)c2cc1C [Example 485] below 20000 nM, do you know?
[reply] Condition not met
